target: T1, human FcRn (AcrobioSystems; Catalog No: FCM-H5286) (human, UniProt P55899 24-297; P61769 21-119); test: SPR Biacore 8K, polypeptide coupled to CM5 chip, human FcRn as analyte, pH 6.0, steady state affinity fit
T1 construct: Bought protein
T1 sequence (P55899 24-297 limits assumed, chain 1 of 2): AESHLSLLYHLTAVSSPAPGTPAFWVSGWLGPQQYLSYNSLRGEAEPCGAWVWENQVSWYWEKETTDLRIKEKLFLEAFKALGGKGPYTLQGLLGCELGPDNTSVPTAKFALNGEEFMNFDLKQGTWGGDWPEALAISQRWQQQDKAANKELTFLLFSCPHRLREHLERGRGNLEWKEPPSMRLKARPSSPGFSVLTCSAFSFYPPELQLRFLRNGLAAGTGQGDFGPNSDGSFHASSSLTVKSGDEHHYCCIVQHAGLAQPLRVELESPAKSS
T1 sequence (P61769 21-119 limits assumed, chain 2 of 2): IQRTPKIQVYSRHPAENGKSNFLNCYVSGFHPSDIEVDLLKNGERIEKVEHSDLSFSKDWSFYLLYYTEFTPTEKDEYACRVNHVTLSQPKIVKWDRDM
pKd: −log10 of the molar value.

- binder: "Spink9-186.Fc (SEQ ID NO: 58) (Fc fusion, Mutant SPINK9 domain fused directly to a C-terminal IgG Fc) IECAKQTKQMVDCSHYKKLPPAQLIYCTKEYDPICGSDGKTYKNDCFFCSKVKKTDGTLKFVHFGKCEPKSCDKTHTCPPCPAPEAAGGPSVFLFPPKPKDTLMISRTPEVTCVVVDVSHEDPEVKFNWYVDGVEVHNAKTKPREEQYNSTYRVVSVLTVLHQDWLNGKEYKCKVSNKALPAPIEKTISKAKGQPREPQVYTLPPSREEMTKNQVSLTCLVKGFYPSDIAVEWESNGQPENNYKTTPPVLDSDGSFFLYSKLTVDKSRWQQGNVFSCSVLHEALHSHYTQKSLSLSPGK"
  pKd: 6.63
- binder: "Spink9-236.Fc (SEQ ID NO: 60) (Fc fusion, Mutant SPINK9 domain fused directly to a C-terminal IgG Fc) IECAKQTKQMVDCSHYKKLPPEQQLMCTREYDPICGSDGKTYKNDCFFCSKVKKTDGTLKFVHFGKCEPKSCDKTHTCPPCPAPEAAGGPSVFLFPPKPKDTLMISRTPEVTCVVVDVSHEDPEVKFNWYVDGVEVHNAKTKPREEQYNSTYRVVSVLTVLHQDWLNGKEYKCKVSNKALPAPIEKTISKAKGQPREPQVYTLPPSREEMTKNQVSLTCLVKGFYPSDIAVEWESNGQPENNYKTTPPVLDSDGSFFLYSKLTVDKSRWQQGNVFSCSVLHEALHSHYTQKSLSLSPGK"
  pKd: 6.64
- binder: "Spink9-183.Fc (SEQ ID NO: 57) (Fc fusion, Mutant SPINK9 domain fused directly to a C-terminal IgG Fc) IECAKQTKQMVDCSHYKKLPPQQQAYCTRDYDPICGSDGKTYKNDCFFCSKVKKTDGTLKFVHFGKCEPKSCDKTHTCPPCPAPEAAGGPSVFLFPPKPKDTLMISRTPEVTCVVVDVSHEDPEVKFNWYVDGVEVHNAKTKPREEQYNSTYRVVSVLTVLHQDWLNGKEYKCKVSNKALPAPIEKTISKAKGQPREPQVYTLPPSREEMTKNQVSLTCLVKGFYPSDIAVEWESNGQPENNYKTTPPVLDSDGSFFLYSKLTVDKSRWQQGNVFSCSVLHEALHSHYTQKSLSLSPGK"
  pKd: 6.65

Cited source for all entries: patent US20260028389A1
